The values you see were collected from the supplement of paper PMC6555819.

Tested on: LXRb:RXRa (NR concentration 270 nM, RXRa partner concentration 90 nM)
Test: PBM binding z-score (relative to random genomic background probes); higher = stronger binding; sequences stand for … in GC…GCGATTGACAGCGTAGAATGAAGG
List of PBM binding z-score values.
Answer as a number with no unit attached.

Below are worked cases with known answers.
>>> numeric_value("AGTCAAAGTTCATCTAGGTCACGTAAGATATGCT")
4.9
>>> numeric_value("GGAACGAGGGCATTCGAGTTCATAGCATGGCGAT")
3.44
>>> numeric_value("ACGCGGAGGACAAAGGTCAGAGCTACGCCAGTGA")
3.19
>>> numeric_value("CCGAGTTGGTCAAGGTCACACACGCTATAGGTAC")
3.66

Determine from records and report PBM binding z-score for "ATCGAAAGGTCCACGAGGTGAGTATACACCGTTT" -0.0349

Kindly indicate its recorded PBM binding z-score. Item: "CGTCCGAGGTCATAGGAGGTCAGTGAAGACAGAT" 6.8

Give me measured PBM binding z-score, please, for this sequence: "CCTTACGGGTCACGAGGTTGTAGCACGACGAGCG" 3.44

---

Tested on: LXRa:RXRa (NR concentration 270 nM, RXRa partner concentration 90 nM)
Test: PBM binding z-score (relative to random genomic background probes); higher = stronger binding; sequences stand for … in GC…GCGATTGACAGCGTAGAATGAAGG
Reported PBM binding z-score maps to class as: I = under 2, II = from 2 up to 4, III = 4 and over

Please review the following examples before continuing.
>>> class_assignment("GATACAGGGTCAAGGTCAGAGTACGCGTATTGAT")
"III"
>>> class_assignment("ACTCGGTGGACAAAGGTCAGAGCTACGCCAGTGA")
"II"
>>> class_assignment("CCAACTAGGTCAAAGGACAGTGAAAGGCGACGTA")
"II"
>>> class_assignment("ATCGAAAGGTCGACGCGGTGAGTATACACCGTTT")
"II"
>>> class_assignment("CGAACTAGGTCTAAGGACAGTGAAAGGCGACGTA")
"I"

Consider "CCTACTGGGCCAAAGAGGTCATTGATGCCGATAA" . To which PBM binding z-score class does it belong? II

Category lookup for the sequence "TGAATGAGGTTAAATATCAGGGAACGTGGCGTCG" II

Category of "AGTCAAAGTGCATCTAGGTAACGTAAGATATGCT" : I

Which bin should I file "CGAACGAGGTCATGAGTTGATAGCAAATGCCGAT" under? III

Lab log: "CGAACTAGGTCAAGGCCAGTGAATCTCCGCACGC" — assign PBM binding z-score category II

---

Tested on: VDR:RXRa (NR concentration 270 nM, RXRa partner concentration 90 nM)
Test: PBM binding z-score (relative to random genomic background probes); higher = stronger binding; sequences stand for … in GC…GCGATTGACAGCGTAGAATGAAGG
Readout kind: PBM binding z-score

Consider the reported PBM binding z-score for these sequences:
>>> result("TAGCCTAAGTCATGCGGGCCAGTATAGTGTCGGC")
-0.392
>>> result("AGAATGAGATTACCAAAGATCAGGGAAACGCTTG")
-0.0977
>>> result("CCTTAGGGGTCAAGGTTATAGCACGGGTGGTACG")
6.11

Tell me its PBM binding z-score given "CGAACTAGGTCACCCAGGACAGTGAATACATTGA" as the entry. 4.43

Check the records and state PBM binding z-score for "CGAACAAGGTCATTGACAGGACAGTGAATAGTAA" 4.88

Consider the sequence "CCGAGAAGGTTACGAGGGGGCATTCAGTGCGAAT" . State its measured PBM binding z-score. 6.24

Query PBM binding z-score for "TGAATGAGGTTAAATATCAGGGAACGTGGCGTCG" 1.54

Report PBM binding z-score for "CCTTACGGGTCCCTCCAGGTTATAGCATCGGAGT" 0.0642

// Input: "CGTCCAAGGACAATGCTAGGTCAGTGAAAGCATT" . Output its PBM binding z-score only. 0.294

Please supply the value of reported PBM binding z-score for the item "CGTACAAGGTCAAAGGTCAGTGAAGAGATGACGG" 6.84

Complete the entry with PBM binding z-score for "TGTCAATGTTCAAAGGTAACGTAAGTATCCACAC" 0.373

In one line, give reported PBM binding z-score of the entry "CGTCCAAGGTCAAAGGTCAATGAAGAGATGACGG" . 7.06

Name the recorded PBM binding z-score of the item "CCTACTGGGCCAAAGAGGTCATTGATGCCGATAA" in your answer. 5.68

Please report PBM binding z-score for the following sequence: "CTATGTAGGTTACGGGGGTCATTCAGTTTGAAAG" 7.72

Annotate the sequence "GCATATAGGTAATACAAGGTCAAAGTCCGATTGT" with its measured PBM binding z-score. 4.39

Provide only the value of recorded PBM binding z-score for "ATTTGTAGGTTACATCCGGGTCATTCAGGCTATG" 4.68

Kindly indicate its recorded PBM binding z-score. Item: "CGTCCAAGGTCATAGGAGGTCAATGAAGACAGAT" 7.01

Consider the sequence "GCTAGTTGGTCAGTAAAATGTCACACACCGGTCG" and give its recorded PBM binding z-score. -0.0389
